- System: SK-OV-3
- PROCEDURE_DETAILS: NCI tumour cell line growth inhibition, 48 h
Calls of active or inactive are those of the source. Cut-off read from the data, not from the text of the source: active = GI50 up to about 1.1 µM and inactive = higher.
PARAMETER_MEASURED: GI50

Recorded results for 5 molecules are shown here.
O=S1(=O)OCCOS(=O)(=O)C1Cl    > 100 µM (inactive)
CCO/N=[N+](\[O-])N(CC)CC    > 100 µM (inactive)
Cc1c(-c2cnccn2)ssc1=S    35.9 µM (inactive)
CC1CN(C)c2ccccc2N=C1NN (stereo unspecified)    > 100 µM (inactive)
C=C1C(OC)=C(OC)C(=O)c2[nH]c3c(OC)cc([N+](=O)[O-])cc3c21    > 100 µM (inactive)

Prompt line: I would be grateful if you could share the reported GI50 for COC(=O)c1c(O)ccc2c1c1c(n2CCc2ccccc2)C(=O)c2ccccc2C1 .
Response line: 22.5 µM (inactive)

Prompt line: Another molecule to check: O=[N+]([O-])c1ccc(C2=Nn3c(nnc3-c3ccccc3)SC2)o1
Response line: > 100 µM (inactive)
